- Target: Toll-like receptor 1/2 (Mus musculus)
- Assay overview: Agonist activity at TLR2/TLR1 in mouse Macrophage cell line
Readout type: EC50

Asked: # input molecule: CCCCCCNC(=O)[C@@H]1CN(C(=O)c2ccc(C(=O)N3C[C@@H](C(=O)N[C@H]4C[C@@H]4c4ccccc4)[C@H](C(=O)N[C@@H]4C[C@H]4c4ccccc4)C3)cc2)C[C@H]1C(=O)NCCCCCC ; wanted: its EC50
Given back: 0.36 µM

Asked: # input molecule: O=C(N[C@H]1C[C@@H]1c1ccc(Br)cc1)[C@@H]1CN(C(=O)c2ccc(C(=O)N3C[C@@H](C(=O)N[C@H]4C[C@@H]4c4ccc(Br)cc4)[C@H](C(=O)N[C@@H]4C[C@H]4c4ccc(Br)cc4)C3)cc2)C[C@H]1C(=O)N[C@H]1C[C@@H]1c1ccc(Br)cc1 ; wanted: its EC50
Given back: > 5 µM

Asked: # input molecule: O=C(NCCc1ccc(F)cc1)[C@@H]1CN(C(=O)c2ccc(-c3ccc(C(=O)N4C[C@@H](C(=O)NCCc5ccc(F)cc5)[C@H](C(=O)NCCc5ccc(F)cc5)C4)cc3)cc2)C[C@H]1C(=O)NCCc1ccc(F)cc1 ; wanted: its EC50
Given back: > 5 µM

Asked: # input molecule: O=C(N[C@H]1C[C@@H]1c1ccccc1)[C@@H]1CN(C(=O)Cc2ccc(CC(=O)N3C[C@@H](C(=O)N[C@H]4C[C@@H]4c4ccccc4)[C@H](C(=O)N[C@H]4C[C@@H]4c4ccccc4)C3)cc2)C[C@H]1C(=O)N[C@H]1C[C@@H]1c1ccccc1 ; wanted: its EC50
Given back: > 5 µM

---

- Target: Toll-like receptor 2 (Homo sapiens, UniProt O60603)
- Assay overview: Agonist activity at human TLR2 transfected in HEK293 cells relative to control
- Type: cell-based
For each entry below, report its pEC50 value.
Scale: negative log10 of molar concentration, which is what pEC50 denotes.

Asked: # input compound: CCCCCCCCCCNC(=O)OC[C@H](CSC[C@@H](N)C(=O)NCCOCCOCCOCCP(=O)(O)O)OC(=O)NCCCCCCCCCC ; wanted: its pEC50
Given back: 6.09

Asked: # input compound: CCCCCCCCNC(=O)OC[C@H](CSC[C@@H](N)C(=O)NCCOCCOCCOCCP(=O)(O)O)OC(=O)NCCCCCCCC ; wanted: its pEC50
Given back: 5.15

Asked: # input compound: CCCCCCCCCCCCCCCCOC[C@H](CSC[C@@H](N)C(=O)NCCOCCOCCOCCP(=O)(O)O)OCCCCCCCCCCCCCCCC ; wanted: its pEC50
Given back: 5.46

Asked: # input compound: CCCCCCCCCCNC(=O)OC[C@H](CSC[C@@H](NC(C)=O)C(=O)NCCOCCOCCOCCP(=O)(O)O)OC(=O)NCCCCCCCCCC ; wanted: its pEC50
Given back: 6.08

Asked: # input compound: CCCCCCCCCCCCCCCC(=O)N[C@H](CSC[C@@H](COC(=O)NCCCCCCCCCC)OC(=O)NCCCCCCCCCC)C(=O)NCCOCCOCCOCCP(=O)(O)O ; wanted: its pEC50
Given back: 5.58

Asked: # input compound: CCCCCCCCCCNC(=O)OC[C@H](CSC[C@@H](NC(=O)CCCCC)C(=O)NCCOCCOCCOCCP(=O)(O)O)OC(=O)NCCCCCCCCCC ; wanted: its pEC50
Given back: 6.08

Asked: # input compound: CCCCCCCC(=O)OC[C@H](CSC[C@@H](N)C(=O)NCCOCCOCCOCCP(=O)(O)O)OC(=O)CCCCCCC ; wanted: its pEC50
Given back: 5.52

Asked: # input compound: CCCCCCCCCCCCOC[C@H](CSC[C@@H](N)C(=O)NCCOCCOCCOCCP(=O)(O)O)OCCCCCCCCCCCC ; wanted: its pEC50
Given back: 6.26

Asked: # input compound: CCCCCCCCCCCCCC(=O)OC[C@H](CSC[C@@H](N)C(=O)NCCOCCOCCOCCP(=O)(O)O)OC(=O)CCCCCCCCCCCCC ; wanted: its pEC50
Given back: 8.20

---

For each entry below, report its EC50 value.
- Target: Toll-like receptor 1/2 (Homo sapiens, UniProt O60603+Q15399)
- Sequence (O60603 whole entry): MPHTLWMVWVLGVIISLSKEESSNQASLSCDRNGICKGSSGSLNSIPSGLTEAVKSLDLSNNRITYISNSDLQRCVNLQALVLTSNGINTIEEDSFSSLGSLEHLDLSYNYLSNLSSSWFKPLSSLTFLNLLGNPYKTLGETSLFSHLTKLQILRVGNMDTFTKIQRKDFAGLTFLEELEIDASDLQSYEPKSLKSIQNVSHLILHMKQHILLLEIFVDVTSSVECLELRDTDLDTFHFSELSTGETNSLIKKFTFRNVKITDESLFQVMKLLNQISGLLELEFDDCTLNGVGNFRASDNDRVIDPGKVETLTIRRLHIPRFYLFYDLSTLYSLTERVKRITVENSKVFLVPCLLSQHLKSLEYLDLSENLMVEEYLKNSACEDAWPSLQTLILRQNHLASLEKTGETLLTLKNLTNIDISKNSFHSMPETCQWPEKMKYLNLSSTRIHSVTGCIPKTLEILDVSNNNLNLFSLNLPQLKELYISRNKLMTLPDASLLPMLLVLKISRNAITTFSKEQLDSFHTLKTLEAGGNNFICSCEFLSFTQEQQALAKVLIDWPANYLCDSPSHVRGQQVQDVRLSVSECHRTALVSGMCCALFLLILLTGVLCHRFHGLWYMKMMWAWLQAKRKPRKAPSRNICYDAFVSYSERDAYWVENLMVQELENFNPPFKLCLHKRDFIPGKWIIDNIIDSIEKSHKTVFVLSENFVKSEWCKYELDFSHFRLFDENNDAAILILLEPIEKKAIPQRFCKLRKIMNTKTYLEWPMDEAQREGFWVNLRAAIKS
- Sequence (Q15399 whole entry): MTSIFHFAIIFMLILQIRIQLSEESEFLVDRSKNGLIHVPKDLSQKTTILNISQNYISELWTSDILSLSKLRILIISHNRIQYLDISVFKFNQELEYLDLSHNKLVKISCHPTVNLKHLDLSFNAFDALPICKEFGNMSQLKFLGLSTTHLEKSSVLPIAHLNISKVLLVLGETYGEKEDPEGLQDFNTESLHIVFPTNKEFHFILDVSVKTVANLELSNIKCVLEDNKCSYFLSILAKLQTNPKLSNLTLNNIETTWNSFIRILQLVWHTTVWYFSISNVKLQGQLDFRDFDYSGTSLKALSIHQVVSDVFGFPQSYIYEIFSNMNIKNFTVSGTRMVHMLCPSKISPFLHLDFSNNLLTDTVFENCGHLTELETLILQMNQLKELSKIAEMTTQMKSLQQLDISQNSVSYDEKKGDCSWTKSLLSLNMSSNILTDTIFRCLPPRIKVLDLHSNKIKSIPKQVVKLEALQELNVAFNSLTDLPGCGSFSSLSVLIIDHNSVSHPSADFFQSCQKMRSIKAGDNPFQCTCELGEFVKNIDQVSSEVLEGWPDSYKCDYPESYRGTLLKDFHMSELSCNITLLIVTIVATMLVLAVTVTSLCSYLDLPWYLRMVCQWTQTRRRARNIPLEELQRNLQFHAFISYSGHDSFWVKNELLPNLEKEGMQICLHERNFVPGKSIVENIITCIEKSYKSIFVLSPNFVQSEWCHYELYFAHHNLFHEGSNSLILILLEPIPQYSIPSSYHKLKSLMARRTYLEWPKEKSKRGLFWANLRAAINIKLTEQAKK
- Assay overview: Agonist activity at TLR2/TLR1 in human THP-1 cells
- Type: cell-based
The response must be a number in nM with no trailing unit.

Asked: # input molecule: CCCCCCCCCCNC(=O)[C@@H]1CN(C(=O)c2ccc(C(=O)N3C[C@@H](C(=O)NCCCCCCCCCC)[C@H](C(=O)N[C@@H]4C[C@H]4c4ccccc4)C3)cc2)C[C@H]1C(=O)N[C@@H]1C[C@H]1c1ccccc1 ; wanted: its EC50
Given back: 35

Asked: # input molecule: O=C(N[C@H]1C[C@@H]1c1ccccc1)[C@@H]1CN(C(=O)c2ccc(C(=O)N3C[C@@H](C(=O)N[C@H]4C[C@@H]4c4ccccc4)[C@H](C(=O)N[C@H]4C[C@@H]4c4ccccc4)C3)nc2)C[C@H]1C(=O)N[C@H]1C[C@@H]1c1ccccc1 ; wanted: its EC50
Given back: 4

---

For each entry below, report its pEC50 value.
- Target: Toll-like receptor 2 (Homo sapiens)
- Assay overview: Agonist activity at human TLR2 transfected in HEK293 cells
- Assay type: cell-based
Scale: negative log10 of molar concentration, which is what pEC50 denotes.

Asked: # input compound: CCCCCCCCCCCC(=O)OC[C@H](CSC[C@@H](N)C(=O)NC(C)(C)CO)OC(=O)CCCCCCCCCCC ; wanted: its pEC50
Given back: 4.81

Asked: # input compound: CCCCCCCCCCCC(=O)OC[C@H](CSC[C@@H](N)C(=O)NCCCS(=O)(=O)O)OC(=O)CCCCCCCCCCC ; wanted: its pEC50
Given back: 5.25

Asked: # input compound: CCCCCCCCCCNC(=O)OC[C@H](CSC[C@@H](N)C(=O)NCCOCCOCCOCCP(=O)(O)O)OC(=O)NCCCCCCCCCC ; wanted: its pEC50
Given back: 6.09

Asked: # input compound: CCCCCCCCCCCC(=O)OC[C@H](CSC[C@@H](N)C(=O)NCCCOCCOCCOCCCNC(=O)C(N)CS)OC(=O)CCCCCCCCCCC (some centres not stated) ; wanted: its pEC50
Given back: 6.61

Asked: # input compound: CCCCCCCCCCCC(=O)OC[C@H](CSC[C@@H](N)C(=O)NCCc1ccc(OCCC(C)C)cc1)OC(=O)CCCCCCCCCCC ; wanted: its pEC50
Given back: 5.09

Asked: # input compound: CCCCCCCCCCNC(=O)OC[C@H](CSC[C@@H](NC(=O)CCCCC)C(=O)NCCOCCOCCOCCP(=O)(O)O)OC(=O)NCCCCCCCCCC ; wanted: its pEC50
Given back: 6.08

Asked: # input compound: CCCCCCCCCCCC(=O)OC[C@H](CSC[C@@H](N)C(=O)NCCOCCOCCOCCC(=O)O)OC(=O)CCCCCCCCCCC ; wanted: its pEC50
Given back: 6.05

Asked: # input compound: CCCCCCCCCCCC(=O)OC[C@H](CSC[C@@H](N)C(=O)NCCc1ccc(Oc2ccccc2)cc1)OC(=O)CCCCCCCCCCC ; wanted: its pEC50
Given back: 5.39

Asked: # input compound: CCCCCCCCCCCC(=O)OC[C@H](CSC[C@@H](N)C(=O)NCCc1ccc(OCCCP(=O)(O)O)cc1)OC(=O)CCCCCCCCCCC ; wanted: its pEC50
Given back: 6.39

Asked: # input compound: CCCCCCCCCCCCCCCCOC[C@H](CSC[C@@H](N)C(=O)NCCOCCOCCOCCP(=O)(O)O)OCCCCCCCCCCCCCCCC ; wanted: its pEC50
Given back: 5.46

Asked: # input compound: CCCCCCCCCCCC(=O)OC[C@H](CSC[C@@H](N)C(=O)NCCCC(C)(C)CO)OC(=O)CCCCCCCCCCC ; wanted: its pEC50
Given back: 4.51

Asked: # input compound: CCCCCCCCCCCC(=O)OC[C@H](CSC[C@@H](N)C(=O)NCCOCCOCCOCCOCCP(=O)(O)O)OC(=O)CCCCCCCCCCC ; wanted: its pEC50
Given back: 7.42

---

For each entry below, report its Activity value.
- Target: Toll-like receptor 2 (Mus musculus) (UniProt Q9QUN7)
- Sequence (Q9QUN7 whole entry): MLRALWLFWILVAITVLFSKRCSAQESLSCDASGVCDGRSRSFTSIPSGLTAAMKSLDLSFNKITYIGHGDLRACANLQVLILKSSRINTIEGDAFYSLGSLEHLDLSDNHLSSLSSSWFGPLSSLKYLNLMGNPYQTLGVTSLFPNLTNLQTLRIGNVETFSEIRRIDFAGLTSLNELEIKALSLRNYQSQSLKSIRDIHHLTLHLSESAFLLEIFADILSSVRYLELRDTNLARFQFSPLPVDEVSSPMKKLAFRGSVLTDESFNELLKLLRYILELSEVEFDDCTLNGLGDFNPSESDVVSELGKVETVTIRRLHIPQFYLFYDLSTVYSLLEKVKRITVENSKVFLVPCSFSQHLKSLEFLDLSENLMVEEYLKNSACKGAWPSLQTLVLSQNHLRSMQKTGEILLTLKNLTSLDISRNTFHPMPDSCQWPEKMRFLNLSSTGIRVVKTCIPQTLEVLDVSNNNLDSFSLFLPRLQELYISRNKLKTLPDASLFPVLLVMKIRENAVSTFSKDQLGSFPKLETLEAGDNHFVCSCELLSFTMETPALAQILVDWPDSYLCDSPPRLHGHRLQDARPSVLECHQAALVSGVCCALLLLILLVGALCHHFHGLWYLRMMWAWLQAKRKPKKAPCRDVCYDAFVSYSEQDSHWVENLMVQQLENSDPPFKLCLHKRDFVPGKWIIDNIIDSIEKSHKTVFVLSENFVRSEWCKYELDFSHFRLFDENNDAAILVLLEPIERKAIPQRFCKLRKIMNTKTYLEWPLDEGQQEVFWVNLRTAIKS
- Assay overview: Agonist activity at mouse TLR2 transfected in HEK293 cells relative to control
- Format: cell-based
- Design: concentration or dose not given beside the values
- Reported conditions: filed as agonist
The response must be a number in % with no trailing unit.

Asked: # input molecule: CCCCCCCCCCCCCC(=O)N[C@H](CSCC(COC(=O)CC)OC(=O)CC)C(=O)N[C@@H](CO)C(=O)N[C@@H](CCCCN)C(=O)N[C@@H](CCCCN)C(=O)N[C@@H](CCCCN)C(=O)N[C@@H](CCCCN)C(=O)O (some centres not stated) ; wanted: its Activity
Given back: 51

Asked: # input molecule: CCCCCCCCCCCCCC(=O)N[C@H](CSCC(COC(=O)CCCCCCC)OC(=O)CCCCCCC)C(=O)N[C@@H](CO)C(=O)N[C@@H](CCCCN)C(=O)N[C@@H](CCCCN)C(=O)N[C@@H](CCCCN)C(=O)N[C@@H](CCCCN)C(=O)O (some centres not stated) ; wanted: its Activity
Given back: 51
